# Assay target: CYP 17A-PL fusion (Homo sapiens, UniProt P05093)
# Sequence (P05093 with tags, fused parts or gaps): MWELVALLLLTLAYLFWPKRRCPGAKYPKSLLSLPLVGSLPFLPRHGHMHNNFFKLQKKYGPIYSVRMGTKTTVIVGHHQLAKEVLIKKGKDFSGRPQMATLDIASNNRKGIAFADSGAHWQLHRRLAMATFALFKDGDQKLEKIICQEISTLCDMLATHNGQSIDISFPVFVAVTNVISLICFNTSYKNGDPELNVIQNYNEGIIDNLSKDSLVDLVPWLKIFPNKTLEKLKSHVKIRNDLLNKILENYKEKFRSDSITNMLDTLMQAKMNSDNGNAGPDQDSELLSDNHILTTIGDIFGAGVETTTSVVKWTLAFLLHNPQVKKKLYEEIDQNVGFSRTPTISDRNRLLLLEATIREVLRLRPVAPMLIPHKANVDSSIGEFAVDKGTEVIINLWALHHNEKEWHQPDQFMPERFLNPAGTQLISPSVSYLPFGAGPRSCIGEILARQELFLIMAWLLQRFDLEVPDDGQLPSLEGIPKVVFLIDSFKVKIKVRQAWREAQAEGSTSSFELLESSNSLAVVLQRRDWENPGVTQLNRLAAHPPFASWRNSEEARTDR
# Protocol summary: CYP17A-PL fusion stabilization in HEK cells (FIG. 11)
# Test settings: stabilization, gain of signal

- Line notation: "C[C@]12CC[C@H](O)CC1=CC[C@@H]1[C@@H]2CC[C@]2(C)C(c3cccnc3)=CC[C@@H]12"
  EC50 (nM): 0.252
